For each entry below, report its EC50 value.
- methodDescription: inhibitors of intracellular T. cruzi replication, confirmation, NIH3T3 host cells, beta-gal luminescence (AID 2044);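 also: intracellular parasites grown in NIH/3T3 mouse fibroblasts as host cells; luminescent beta-galactosidase reporter signal from transgenic T. cruzi replicating inside host cells; inhibitors lower the luminescence signal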
- Format: functional, cell-based
Active and inactive are the calls of the source. Rule as the data show it: actives have a measured EC50 and inactives only a lower limit.

Qu. Respond only with EC50 recorded for `CC(=N)/C(C#N)=C(/O)CSc1nc2cc(Cl)ccc2c(=O)n1Cc1ccco1`
Ans. 3430 nM (active)

Qu. Respond only with EC50 recorded for CCC(=O)NC(c1ccc(OC)c(OC)c1)c1cc(Cl)c2cccnc2c1O (stereo not drawn)
Ans. 960 nM (active)

Qu. Respond only with EC50 recorded for Cc1ccnc(NC(c2ccsc2)c2ccc3ccc(C)nc3c2O)c1 (stereo not drawn)
Ans. 1640 nM (active)

Qu. Respond only with EC50 recorded for COc1cccc(CN2CCN(Cc3c(C)nn(C(C)C)c3C)CC2CCO)c1 (stereo not drawn)
Ans. 1140 nM (active)

Qu. Respond only with EC50 recorded for `COC(=O)c1ccc(C2Nc3cccc4cccc(c34)N2)cc1`
Ans. 6100 nM (active)

Qu. Respond only with EC50 recorded for `COc1ccc2nc(C)cc(Nc3ccc(N4CCOCC4)cc3)c2c1`
Ans. 1790 nM (active)

Qu. Respond only with EC50 recorded for `COc1ccc(-c2cc(C#N)nc(N3CCNCC3)n2)cc1`
Ans. 3690 nM (active)

Qu. Respond only with EC50 recorded for `CN1/C(=C/c2cccc[n+]2C)Sc2ccccc21`
Ans. 185 nM (active)

Qu. Respond only with EC50 recorded for `Cc1cc(Nc2cccc(Cl)c2)nc(NCc2ccccc2)n1`
Ans. 177 nM (active)

Qu. Respond only with EC50 recorded for `O=C(CCl)N1c2ccccc2CCc2ccccc21`
Ans. 2090 nM (active)

Qu. Respond only with EC50 recorded for `OC1CCN(Cc2ccc(OCc3ccccc3)cc2)CC1`
Ans. < 100 nM (active)

Qu. Respond only with EC50 recorded for `Cc1nn(Cc2ccc(Cl)cc2Cl)c(C)c1NC(=O)c1ccc(COc2cc(Cl)ccc2Cl)o1`
Ans. 1500 nM (active)

Qu. Respond only with EC50 recorded for CCN(CC)P(=O)(Nc1ccccc1Br)c1ccc(N(C)C)cc1NC(=O)c1ccco1 (stereo not drawn)
Ans. 1950 nM (active)

Qu. Respond only with EC50 recorded for Cc1ccc(-c2cc(C(=O)N3N=C(C(F)F)CC3(O)C(F)F)c3ccccc3n2)cc1C (stereo not drawn)
Ans. 2450 nM (active)

Qu. Respond only with EC50 recorded for O=C(NCCc1c[nH]c2ccccc12)C1CCC(Cn2c(=S)[nH]c3ccccc3c2=O)CC1 (stereo not drawn)
Ans. 1070 nM (active)

Qu. Respond only with EC50 recorded for `Cn1c(N2CCOCC2)c(/C=N/OC(=O)c2ccc(F)cc2)c2ccccc21`
Ans. 596 nM (active)

Qu. Respond only with EC50 recorded for `CC(C)(CN=C(S)NCCc1ccccc1)CN=C(S)NCCc1ccccc1`
Ans. 3350 nM (active)

Qu. Respond only with EC50 recorded for `Cc1c(Cl)cccc1Nc1nc(NCCO)c2ccccc2n1`
Ans. 1200 nM (active)
